Values were extracted from ChEMBL document CHEMBL1782028.

Assign pEC50 to each entry below.
Target: Nicotinic acetylcholine receptor alpha-4/beta-2 (Mus musculus, UniProt Q8R493+Q9ERK7)
Sequence (Q9ERK7 whole entry): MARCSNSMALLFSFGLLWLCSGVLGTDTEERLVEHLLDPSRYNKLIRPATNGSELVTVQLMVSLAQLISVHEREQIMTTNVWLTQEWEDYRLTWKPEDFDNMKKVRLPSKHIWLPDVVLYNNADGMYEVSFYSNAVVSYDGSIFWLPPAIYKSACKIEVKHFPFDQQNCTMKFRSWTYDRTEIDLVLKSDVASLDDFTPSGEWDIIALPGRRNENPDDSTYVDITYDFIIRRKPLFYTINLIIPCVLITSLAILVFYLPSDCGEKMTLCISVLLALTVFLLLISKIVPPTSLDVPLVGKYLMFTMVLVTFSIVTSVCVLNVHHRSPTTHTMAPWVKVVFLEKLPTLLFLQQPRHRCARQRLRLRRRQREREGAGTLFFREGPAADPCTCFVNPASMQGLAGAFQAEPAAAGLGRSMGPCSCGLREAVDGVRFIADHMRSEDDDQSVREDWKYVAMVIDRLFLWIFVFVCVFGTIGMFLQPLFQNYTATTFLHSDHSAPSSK
Sequence (Q8R493 whole entry): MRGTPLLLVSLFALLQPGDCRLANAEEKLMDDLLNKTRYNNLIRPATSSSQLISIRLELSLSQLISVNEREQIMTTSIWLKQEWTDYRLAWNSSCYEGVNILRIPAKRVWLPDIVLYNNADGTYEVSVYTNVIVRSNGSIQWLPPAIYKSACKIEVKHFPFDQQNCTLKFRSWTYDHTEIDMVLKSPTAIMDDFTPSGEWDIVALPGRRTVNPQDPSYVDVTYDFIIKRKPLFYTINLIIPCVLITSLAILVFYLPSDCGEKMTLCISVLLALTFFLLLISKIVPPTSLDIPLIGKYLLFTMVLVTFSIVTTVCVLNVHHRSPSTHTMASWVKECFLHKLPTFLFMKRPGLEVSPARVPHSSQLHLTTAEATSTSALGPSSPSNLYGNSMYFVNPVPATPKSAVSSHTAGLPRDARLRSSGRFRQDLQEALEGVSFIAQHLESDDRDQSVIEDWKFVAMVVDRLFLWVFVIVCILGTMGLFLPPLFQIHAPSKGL
Assay: Activity at alpha4beta2*nAChR in mouse striatal synaptosomes assessed as alpha-conotoxic MII-resistant DA release
Answers are plain numbers, as −log10 of the molar value.

Worked cases, answers included:
compound: CN1C2C=C(c3cncnc3)CC1CC2.O=C(O)C(F)(F)F (centres undefined)
pEC50: 5.74
//
compound: C(#C[C@H]1CCCN1)c1cccnc1.O=C(O)[C@@H](O)[C@H](O)[C@H](O)[C@@H](O)C(=O)O
pEC50: 4.89
//
compound: O=C(O)C(F)(F)F.c1ncc(C2CC3CCN2CC3)cn1 (centres undefined)
pEC50: 6.35

Query: Report pEC50, nothing else, for this compound: "CNCC/C=C/c1cccnc1.O=C(O)[C@@H](O)[C@H](O)[C@H](O)[C@@H](O)C(=O)O"
Reply: 5.08
